assay.protocol: accelerated autoxidation of lipids by air, Rancimat apparatus, squalene
experimental.parameters: squalene purified over alumina, stabilized with 1 ppm α-tocopherol, 80° C., 0.005% test substance
Entries and their AOI in squalene at 80° C. with 0.005% of test substance values follow.
Respond using a number only.

Check out these entries, answers already filled in.
>  <molecule>
O=C1O[C@H]([C@@H](O)CO)C(O)=C1O

>  <measured.number>
0.7

$$$$
>  <molecule>
Cc1cc(C(C)(C)C)c(O)c(C(C)(C)C)c1

>  <measured.number>
38

$$$$
>  <molecule>
Cc1c(C)c2c(c(C)c1O)CC[C@@](C)(CCC[C@H](C)CCC[C@H](C)CCCC(C)C)O2

>  <measured.number>
39

$$$$

Task: Quick one: AOI in squalene at 80° C. with 0.005% of test substance for O=C(O)C(O)c1ccc(O)c(O)c1 (stereo not shown) [3,4-Dihydroxymandelic acid] ?
Output: 34
